Biological target: UniProtKB Q12809
Sequence (Q12809 whole entry): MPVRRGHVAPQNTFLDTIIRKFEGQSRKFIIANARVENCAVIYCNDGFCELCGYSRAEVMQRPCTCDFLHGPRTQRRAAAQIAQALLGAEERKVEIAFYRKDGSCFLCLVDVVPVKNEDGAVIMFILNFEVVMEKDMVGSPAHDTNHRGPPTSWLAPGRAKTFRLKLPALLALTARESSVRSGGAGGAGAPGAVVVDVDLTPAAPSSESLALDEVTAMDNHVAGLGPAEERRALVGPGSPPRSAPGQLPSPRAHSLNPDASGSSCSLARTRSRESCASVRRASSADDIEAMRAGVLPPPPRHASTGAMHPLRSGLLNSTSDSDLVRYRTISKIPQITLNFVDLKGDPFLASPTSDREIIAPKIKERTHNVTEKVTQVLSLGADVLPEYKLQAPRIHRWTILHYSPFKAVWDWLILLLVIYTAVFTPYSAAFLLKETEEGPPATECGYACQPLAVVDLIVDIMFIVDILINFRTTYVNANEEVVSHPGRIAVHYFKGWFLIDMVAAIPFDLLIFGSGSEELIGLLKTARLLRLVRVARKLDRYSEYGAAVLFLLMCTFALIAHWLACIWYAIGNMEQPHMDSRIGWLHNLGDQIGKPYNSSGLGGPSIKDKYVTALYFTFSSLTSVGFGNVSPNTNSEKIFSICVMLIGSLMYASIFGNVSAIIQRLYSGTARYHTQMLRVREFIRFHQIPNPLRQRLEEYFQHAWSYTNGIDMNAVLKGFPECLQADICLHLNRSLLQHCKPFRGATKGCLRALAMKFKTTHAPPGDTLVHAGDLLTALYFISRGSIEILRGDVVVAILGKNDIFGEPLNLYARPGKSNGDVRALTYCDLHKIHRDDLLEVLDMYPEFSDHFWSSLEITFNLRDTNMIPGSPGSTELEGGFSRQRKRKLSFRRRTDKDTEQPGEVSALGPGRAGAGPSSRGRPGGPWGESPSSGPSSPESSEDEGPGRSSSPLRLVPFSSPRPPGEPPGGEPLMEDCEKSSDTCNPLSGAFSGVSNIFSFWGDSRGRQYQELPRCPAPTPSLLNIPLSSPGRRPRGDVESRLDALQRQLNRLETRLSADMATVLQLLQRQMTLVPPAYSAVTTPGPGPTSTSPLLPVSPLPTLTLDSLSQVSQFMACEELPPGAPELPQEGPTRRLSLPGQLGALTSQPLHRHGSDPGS
Test: hERG-encoded potassium channel inhibition test (d)
Conditions: HEK cells expressing hERG-encoded channel, tail current, whole cell patch clamp
RECORDED_METRIC: pIC50
Please report pIC50 as the negative decimal logarithm of the molar concentration, giving only the number.

[ask] Suppose we examine the compound COc1cc2c(Oc3ccc4[nH]c(C)c(C)c4c3)ncnc2cc1OCCN1CCN(CC(C)=O)CC1 ; what pIC50 value has been reported?
[reply] 5.00
